test system: MCF7; experiment: Cytotoxicity against human MCF7 cells assessed as induction of cell death incubated for 2 days by MTT assay; type: functional, cell-based; conditions: MCF7, 48 h
ENDPOINT: pIC50
Just the number, please; pIC50 means minus log10 of the concentration in mol/L.

CC(=O)OC[C@H]1O[C@@H](O[C@H]2[C@@H](O)[C@@H](C)O[C@@H](O[C@H]3CC[C@@]4(C)[C@@H](CC[C@]5(C)[C@@H]4C=C[C@]46OC[C@@]7(CCC(C)(C)C[C@H]74)[C@H](O)C[C@]65C)[C@]3(C)CO)[C@@H]2O)[C@H](O)[C@@H](O)[C@@H]1O	5.00
CC(=O)O[C@H]1[C@H](O[C@H]2[C@@H](O)[C@@H](C)O[C@@H](O[C@H]3CC[C@@]4(C)[C@@H](CC[C@]5(C)[C@@H]4C=C[C@]46OC[C@@]7(CCC(C)(C)C[C@H]74)[C@@H](O)C[C@]65C)[C@]3(C)CO)[C@@H]2O)O[C@H](CO)[C@@H](O)[C@@H]1O	4.52

Let us examine a further case.
Recorded pIC50 (molecule `CC(=O)OC[C@@]1(C)[C@@H]2CC[C@]3(C)[C@H](C=C[C@]45OC[C@@]6(CCC(C)(C)C[C@H]64)[C@@H](O)C[C@]53C)[C@@]2(C)CC[C@@H]1O[C@@H]1O[C@H](C)[C@H](O)[C@H](O)[C@H]1O` ): 4.47
